Overview of reported melting point across a group of molecules:

Answered examples (8):
Molecule	melting point
Cc1ccc(Oc2ccc(C)cc2C(=O)O)cc1	113 to 115 °C
CC(=O)C(=NNc1ccc(OC(C)(C)C)cc1)Sc1ccc(Cl)cc1	107 to 108 °C
COC(=O)c1sc(N)cc1NC(C)=O	162 to 163 °C
COC(=O)c1cnc(Cl)c(C)n1	49 to 50 °C
CC1CCN(C(=O)Oc2ccc(Oc3ccccc3)cc2F)CC1	43 to 46 °C
Cc1cc(N)cc(C)c1S(=O)(=O)NCCSCCN	150 to 160 °C
CCN(CC)C(=O)COc1cccc(-n2nc(-c3ccc(F)cc3)c3cccnc32)c1	102 to 105 °C
COc1ccc(S(=O)(=O)Nc2cccnc2Nc2ccccc2)cc1OC	171 to 172 °C

`CC(O)=C(C#N)C(=O)Nc1cccc(Cl)c1` has a reported melting point of 184 to 187 °C

`Cc1oc(-c2ccc(C(F)(F)F)cc2)nc1-c1ccc2c(Br)c(OCC(=O)O)ccc2c1` has a reported melting point of 212 to 214 °C

`ClCc1ccc(CN=C(Nc2ccccc2-c2ccccc2)Nc2ccccc2-c2ccccc2)cc1` has a reported melting point of 87 to 91.5 °C

O=c1c2ccccc2sc2cc(OCC(O)CCl)cc(O)c12 (configuration not stated) has a reported melting point of 151 °C
